FYI, the data here is from the supplement of paper PMC13207355.

- System: E57 (patient-derived glioblastoma stem cells of mesenchymal subtype)
- EXPERIMENTAL PROTOCOL: phenotypic distance (Euclidean, principal components) from DMSO controls (arbitrary units); higher = stronger morphological change
- PARTICULARS: 4.1 nM; exposure time: 72 h
MEASUREMENT KIND: phenotypic distance

In [3]: df
Out[3]:
                                   compound  assay_value
0  CC[C@@]1(O)C(=O)OCc2c1cc1n(c2=O)Cc2cc3c(CN(C)C)c(O)ccc3nc2-1         6.01
1  CC1CNc2c(cccc2S(=O)(=O)N[C@@H](CCCNC(=N)N)C(=O)N2CC[C@@H](C)C[C@@H]2C(=O)O)C1 (some centres undefined)        0.489
2  COc1cc(N)c(Cl)cc1C(=O)NC1CCN(CCCOc2ccc(F)cc2)CC1OC (centres undefined) [Cisapride]        0.385
3  Cc1cc(C(C)(C)CC(C)(C)C)ccc1OCCOCC[N+](C)(C)Cc1ccccc1 [Methyl benzethonium chloride]        0.767

* * *

- System: E21 (patient-derived glioblastoma stem cells of mesenchymal subtype)
- EXPERIMENTAL PROTOCOL: surviving fraction (nuclei count normalised to DMSO); higher = more cells surviving (less toxic)
- PARTICULARS: 37.037 nM; exposure time: 72 h
Where a name gives a salt, the structure may show the parent alone.
MEASUREMENT KIND: surviving fraction

In [3]: df
Out[3]:
                                   molecule  target_under_test  assay_value
0  Cc1ccc(NC(=O)c2ccc3c(c2)OCCO3)cc1NC(=O)c1ccc2nc(OCCN3CCCC3)ccc2c1                E21        0.406
1               O=c1c2ccccc2[se]n1-c1ccccc1                E21         1.11
2  Cc1[nH]nc(C(F)(F)F)c1Cc1sc2c(c1C(=O)N1C[C@](C)(O)CO1)c(=O)n(C)c(=O)n2C(C)C                E21        0.985
3  COC(=O)[C@@H]1[C@H]2C[C@H]3c4[nH]c5ccccc5c4CCN3C[C@@H]2CC[C@@H]1O [Yohimbine hydrochloride]                E21        0.994
4  O=C(O)c1ccc(-c2c[nH]c3ncc(-c4ccccc4)cc23)cc1C1CCCC1                E21        0.918
5  C[C@@H](O)[C@H]1C(=O)N2C(C(=O)O)=C(S[C@@H]3CN[C@H](C(=O)N(C)C)C3)[C@H](C)[C@H]12                E21         1.07
6  CC(C)C[C@H](NC(=O)[C@H](Cc1ccccc1)C[C@@H](O)[C@H](Cc1ccccc1)NC(=O)OC(C)(C)C)C(=O)N[C@@H](Cc1ccccc1)C(N)=O                E21        0.941
7      O=[N+]([O-])c1ccc2c(c1)S(=O)(=O)C=C2                E21        0.849
8   OCCN1C[C@H](O)[C@@H](O)[C@H](O)[C@H]1CO                E21        0.996
9    COC(=O)Nc1nc2cc(C(=O)c3cccs3)ccc2[nH]1                E21        0.116

* * *

- Tested on: E57
- EXPERIMENTAL PROTOCOL: surviving fraction (nuclei count normalised to DMSO); higher = more cells surviving (less toxic)
- PARTICULARS: 12.34567901 nM; exposure time: 72 h
Structures can show the parent of a compound that is named as a salt.
A collection of compounds and their measured surviving fraction
MEASUREMENT KIND: surviving fraction

>>> print(df.to_string())
                                   compound  target_under_test    measurement_kind  assay_value
0               O=c1c2ccccc2[se]n1-c1ccccc1                E57  surviving fraction        0.962
1  CC(C)C[C@H](NC(=O)[C@H](Cc1ccccc1)NC(=O)c1cnccn1)B(O)O                E57  surviving fraction      0.00153
2  COC(=O)[C@@H]1[C@H]2C[C@H]3c4[nH]c5ccccc5c4CCN3C[C@@H]2CC[C@@H]1O [Yohimbine hydrochloride]                E57  surviving fraction         1.07
3  Nc1ncn([C@@H]2O[C@H](CO)[C@@H](O)[C@H]2O)c(=O)n1                E57  surviving fraction        0.904
4  Cc1cc(C)c(CN2CCc3c(Cl)cc(-c4c(C)noc4C)c(Cl)c3C2=O)c(=O)[nH]1                E57  surviving fraction        0.938
5    COC(=O)Nc1nc2cc(C(=O)c3cccs3)ccc2[nH]1                E57  surviving fraction        0.418

* * *

A collection of compounds and their measured surviving fraction
- Tested on: E13 (patient-derived glioblastoma stem cells of classical subtype)
- EXPERIMENTAL PROTOCOL: surviving fraction (nuclei count normalised to DMSO); higher = more cells surviving (less toxic)
- PARTICULARS: 1000 nM; exposure time: 72 h
Where a name gives a salt, the structure may show the parent alone.

COMPOUND	surviving fraction
CC[C@@]1(O)C(=O)OCc2c1cc1n(c2=O)Cc2cc3c(CN(C)C)c(O)ccc3nc2-1	0.206
CSc1ccc2c(c1)N(CCC1CCCCN1C)c1ccccc1S2 (configuration not stated) [Thioridazine hydrochloride]	0.93
CN1C(=O)[C@@]23C[C@]4([C@]56C[C@@]78SS[C@@](CO)(C(=O)N7[C@H]5Nc5ccccc56)N(C)C8=O)c5ccccc5N[C@@H]4N2C(=O)[C@]1(CO)SS3	0.0119
CO[C@H]1C(=O)[C@]2(C)[C@@H](OC)C[C@H]3OC[C@@]3(OC(C)=O)[C@H]2[C@H](OC(=O)c2ccccc2)[C@]2(O)C[C@H](OC(=O)[C@H](O)[C@@H](NC(=O)OC(C)(C)C)c3ccccc3)C(C)=C1C2(C)C	0.245
OCCN1C[C@H](O)[C@@H](O)[C@H](O)[C@H]1CO	0.889
Nc1ncn(C2OC(CO)C(O)C2O)c(=O)n1 (configuration not stated)	0.894
NCCCP(=O)(O)O	0.884

* * *

- System: E34 (patient-derived glioblastoma stem cells of proneural subtype)
- EXPERIMENTAL PROTOCOL: phenotypic distance (Euclidean, principal components) from DMSO controls (arbitrary units); higher = stronger morphological change
- PARTICULARS: 37 nM; exposure time: 72 h
A collection of compounds and their measured phenotypic distance
MEASUREMENT KIND: phenotypic distance

In [3]: df
Out[3]:
                                   compound  target_under_test  assay_value
0  CCOC(=O)OC(C)OC1=C(C(=O)Nc2ccccn2)N(C)S(=O)(=O)c2ccccc21 (centres undefined)                E34        0.505
1  C#C[C@]1(O)CC[C@H]2[C@@H]3CCC4=CCCC[C@@H]4[C@H]3CC[C@@]21C                E34        0.743
2  Clc1ccc(C(Cn2ccnc2)OCc2ccsc2Cl)c(Cl)c1 (centres undefined)                E34        0.702
3  CCC(C)(C)C(=O)O[C@H]1C[C@@H](C)C=C2C=C[C@H](C)[C@H](CC[C@@H]3C[C@@H](O)CC(=O)O3)[C@H]21                E34        0.739

* * *

A collection of compounds and their measured surviving fraction
- Test system: E31 (patient-derived glioblastoma stem cells of proneural subtype)
- EXPERIMENTAL PROTOCOL: surviving fraction (nuclei count normalised to DMSO); higher = more cells surviving (less toxic)
- PARTICULARS: 111.1111111 nM; exposure time: 72 h
Where a name gives a salt, the structure may show the parent alone.

COMPOUND	surviving fraction
O=c1c2ccccc2[se]n1-c1ccccc1 [Ebselen]	1.12
CCN(CC)CCCC(C)Nc1c2ccc(Cl)cc2nc2ccc(OC)cc12 (stereo not given) [Quinacrine dihydrochloride hydrate]	1.14
OCCN1C[C@H](O)[C@@H](O)[C@H](O)[C@H]1CO [Miglitol]	0.999
C/C=C(\C)C(=O)N[C@@H](c1ccccc1)[C@@H](O)C(=O)O[C@H]1C[C@@]2(O)[C@@H](OC(=O)c3ccccc3)[C@@H]3[C@]4(OC(C)=O)CO[C@@H]4C[C@H](O)[C@@]3(C)C(=O)[C@H](OC(C)=O)C(=C1C)C2(C)C [Cephalomannine]	0.11
COC(=O)[C@@H]1[C@H]2C[C@H]3c4[nH]c5ccccc5c4CCN3C[C@@H]2CC[C@@H]1O [Yohimbine hydrochloride]	0.859

* * *

- Test system: E13
- EXPERIMENTAL PROTOCOL: phenotypic distance (Euclidean, principal components) from DMSO controls (arbitrary units); higher = stronger morphological change
- PARTICULARS: 37 nM; exposure time: 72 h
Structures can show the parent of a compound that is named as a salt.

MOLECULE	TARGET UNDER TEST	phenotypic distance
NCc1ccccc1CC(=O)N[C@@H]1C(=O)N2C(C(=O)O)=C(CSc3nnnn3CC(=O)O)CS[C@H]12 [Ceforanide]	E13	0.565
CCn1cc(C(=O)O)c(=O)c2cc(F)c(N3CCNCC3)nc21 [Enoxacin]	E13	0.539
Cc1[nH]nc(C(F)(F)F)c1Cc1sc2c(c1C(=O)N1C[C@](C)(O)CO1)c(=O)n(C)c(=O)n2C(C)C [AZD3965]	E13	1.12
NC(=O)c1cccc2cn(-c3ccc([C@@H]4CCCNC4)cc3)nc12 [Niraparib]	E13	0.647
CC(=O)CC(c1ccc([N+](=O)[O-])cc1)c1c(O)c2ccccc2oc1=O (centres undefined) [Acenocoumarol]	E13	2.8
Clc1ccc(C(Cn2ccnc2)OCc2ccsc2Cl)c(Cl)c1 (centres undefined) [Tioconazole]	E13	0.952
Cc1ncc(CO)c(CO)c1O [Pyridoxine hydrochloride]	E13	0.476
C[C@@H](O[C@H]1OCCN(Cc2n[nH]c(=O)[nH]2)[C@H]1c1ccc(F)cc1)c1cc(C(F)(F)F)cc(C(F)(F)F)c1 [Aprepitant]	E13	0.522
OC[C@H]1O[C@@H](Oc2ccc(O)cc2)[C@H](O)[C@@H](O)[C@@H]1O [Arbutin]	E13	0.511
O=C1c2c(O)ccc(O)c2C(=O)c2c(NCCNCCO)ccc(NCCNCCO)c21 [Mitoxantrone]	E13	6.07
Cc1ccc(NC(=O)c2ccc3c(c2)OCCO3)cc1NC(=O)c1ccc2nc(OCCN3CCCC3)ccc2c1	E13	2.97
CC[N+](CC)(CC)CCOc1ccc(/C=C/c2ccccc2)cc1 [MG 624]	E13	0.769
COc1ccc([C@@H]2CC(=O)c3c(O)cc(O[C@@H]4O[C@H](CO[C@@H]5O[C@@H](C)[C@H](O)[C@@H](O)[C@H]5O)[C@@H](O)[C@H](O)[C@H]4O)cc3O2)cc1O [Hesperidin]	E13	0.507
CC(=O)O[C@H]1C[C@H](O[C@H]2[C@@H](O)C[C@H](O[C@H]3[C@@H](O)C[C@H](O[C@H]4CC[C@@]5(C)[C@H](CC[C@@H]6[C@@H]5C[C@@H](O)[C@]5(C)[C@@H](C7=CC(=O)OC7)CC[C@]65O)C4)O[C@@H]3C)O[C@@H]2C)O[C@H](C)[C@H]1O[C@@H]1O[C@H](CO)[C@@H](O)[C@H](O)[C@H]1O [Lanatoside C]	E13	4.8
